Tested on: LOX IMVI
Experiment: Cytotoxicity against human LOXIMVI cells after 4 hrs by MTT assay
Assay type: functional, cell-based
measured.quantity: IC50

Please look at NCCNC(=O)C(CN)(Cc1ccc2ccccc2c1)Cc1ccc2ccccc2c1 and tell me its recorded IC50 on LOX IMVI. 620 nM

* * *

Would you mind telling me the reported Selectivity Index of each entry?
Test system: Ramos
Test: Selectivity index, ratio of EC50 for human MRC5 cells to IC50 for human Ramos cells
Assay type: functional
// return just the number, without any unit appended

State its Selectivity Index: N=C(N)NCCCNC(=O)C(CNC(=N)N)(Cc1ccc2ccccc2c1)Cc1ccc2ccccc2c1 9.6

State its Selectivity Index: CN1CCN(C(=O)C(CN)(Cc2ccc3ccccc3c2)Cc2ccc3ccccc3c2)CC1 2.9

State its Selectivity Index: CN(C)CCOC(=O)C(CN)(Cc1ccc2ccccc2c1)Cc1ccc2ccccc2c1 4.1

State its Selectivity Index: CN1CCN(C(=O)C(CN)(Cc2ccc(C(C)(C)C)cc2)Cc2ccc(C(C)(C)C)cc2)CC1 2.7

State its Selectivity Index: CN(C)CCN1CCN(C(=O)C(CN)(Cc2ccc(C(C)(C)C)cc2)Cc2ccc(C(C)(C)C)cc2)CC1 2.3

* * *

Test system: MDA-MB-231
Assay: Cytotoxicity against human MDA-MB-231 cells after 4 hrs by MTT assay
Type: functional, cell-based
Settings: MDA-MB-231, 4 h
measured.quantity: pIC50
FYI, pIC50 means -log10 of a concentration in mol per litre.

Please look at NCCNC(=O)C(CN)(Cc1ccc2ccccc2c1)Cc1ccc2ccccc2c1 and tell me its recorded pIC50 on MDA-MB-231. 5.52

* * *

System: A498
Assay: Cytotoxicity against human A498 cells after 4 hrs by MTT assay
Type: functional, cell-based
Settings: A498, 4 h
measured.quantity: IC50 (µM)
Provide the reading as a plain figure in µM.

Please look at NCCNC(=O)C(CN)(Cc1ccc2ccccc2c1)Cc1ccc2ccccc2c1 and tell me its recorded IC50 on A498. 2.82

* * *

Tested on: K562
Test: Cytotoxicity against human K562 cells after 4 hrs by MTT assay
Assay type: functional, cell-based
Conditions: K562, 4 h
measured.quantity: pIC50
FYI, pIC50 means -log10 of a concentration in mol per litre.

Please look at NCCNC(=O)C(CN)(Cc1ccc2ccccc2c1)Cc1ccc2ccccc2c1 and tell me its recorded pIC50 on K562. 6.49

* * *

Tested on: Ramos
Assay: Selectivity index, ratio of EC50 for human MRC5 cells to IC50 for human Ramos cells
Format: functional
For each record, check the reported Selectivity Index: if it is below 2 write Criterion met, else write Criterion not met.

Report whether reported Selectivity Index is lower than 2 (strictly) for N=C(N)NCCCNC(=O)C(CNC(=N)N)(Cc1ccc(C(F)(F)F)cc1)Cc1ccc(C(F)(F)F)cc1 Criterion not met

Report whether reported Selectivity Index is lower than 2 (strictly) for CN(C)CCNC(=O)C(CN)(Cc1ccc(C(C)(C)C)cc1)Cc1ccc(C(C)(C)C)cc1 Criterion met

Report whether reported Selectivity Index is lower than 2 (strictly) for CN1CCN(C(=O)C(CN)(Cc2ccc(C(F)(F)F)cc2)Cc2ccc(C(F)(F)F)cc2)CC1 Criterion not met

Report whether reported Selectivity Index is lower than 2 (strictly) for N=C(N)NCCC[C@H](NC(=O)C(CN)(Cc1ccc2ccccc2c1)Cc1ccc2ccccc2c1)C(N)=O Criterion not met

Report whether reported Selectivity Index is lower than 2 (strictly) for CC(C)(C)c1ccc(CC(CN)(Cc2ccc(C(C)(C)C)cc2)C(=O)N[C@@H](CCCNC(=N)N)C(N)=O)cc1 Criterion met

Report whether reported Selectivity Index is lower than 2 (strictly) for NCCCNC(=O)C(CN)(Cc1ccc2ccccc2c1)Cc1ccc2ccccc2c1 Criterion met

Report whether reported Selectivity Index is lower than 2 (strictly) for NCCCNC(=O)C(CN)(Cc1ccc(C(F)(F)F)cc1)Cc1ccc(C(F)(F)F)cc1 Criterion not met

Report whether reported Selectivity Index is lower than 2 (strictly) for NCCNC(=O)C(CN)(Cc1ccc(C(F)(F)F)cc1)Cc1ccc(C(F)(F)F)cc1 Criterion not met
